Target: T1, his-tagged human TIGIT (Acro Biosystems #TIT-H52H3) (human, UniProt Q495A1 22-141)
T1 construct: Bought protein; also called His-tagged-TIGIT (human); not shown: his tag
T1 sequence (looked up): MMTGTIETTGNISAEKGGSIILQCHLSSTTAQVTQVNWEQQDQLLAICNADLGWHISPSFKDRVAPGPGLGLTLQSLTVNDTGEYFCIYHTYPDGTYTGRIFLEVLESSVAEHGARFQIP
Experiment: ELISA, coated His-TIGIT, 1 ug/ml
So I've got a bunch of binders here, and I need their Elisa OD450 values.
Please answer using a numeric value trailed by its unit.

Elisa OD450 lookup needed for 43586p1.2.E1 (scFv, V domains shown) VH: EVQLLESGGGLVQPGGSLRLSCAASGFTFSDYLMTWVRQAPGKELEWVSTITWDGDRTYYADSVKGRFTISRDNSKNTLYLQMNSLRAEDTAVYYCAKHWTVFQYGMDVWGQGTTVTVSS VL: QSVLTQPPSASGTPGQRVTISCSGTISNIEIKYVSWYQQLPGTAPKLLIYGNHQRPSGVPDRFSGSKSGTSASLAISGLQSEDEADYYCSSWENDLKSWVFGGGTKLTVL , thanks. 2.25 OD450

Elisa OD450 lookup needed for 43586p1.2.E6 (scFv, V domains shown) VH: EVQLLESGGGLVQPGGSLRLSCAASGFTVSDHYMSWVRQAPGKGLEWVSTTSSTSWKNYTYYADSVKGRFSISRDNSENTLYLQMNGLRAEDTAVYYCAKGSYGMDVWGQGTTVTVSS VL: QSVLTQPPSASGTPGQRVTISCSGSNFNIGTKYLYWYQQLPGTAPKLLIYLDSQRPSGVPDRFSTSKSGTSASLAISGLQSEDEADYYCALWDDHLHGWVFGGGTKLTVL , thanks. 1.82 OD450

Elisa OD450 lookup needed for 43645p1.E3 (scFv, V domains shown) VH: EVQLLESGGGLVQPGGSLRLSCAASGFTFSSYAMSWVRQAPGKGLEWVSAIYFDGSIYDADSVKGRFTISRDNSKNTLYLQMNSLRDEDTAVYYCAKSHTVLQYGMDVWGQGTTVTVSS VL: QSVLTQPPSASGTPGQRVTISCSGVTSNIRNSYVSWYQQLPGTAPKLLIYGNDQRPSGVPDRFSGSKSGTSASLAISGLQSEDEADYYCGTWDNTLNAWVFGGGTKLTVL , thanks. 1.99 OD450
